EXPERIMENTAL_SYSTEM: purified neutral endopeptidase (NEP) (UniProt P08473)
Sequence (P08473 52-750 limits assumed): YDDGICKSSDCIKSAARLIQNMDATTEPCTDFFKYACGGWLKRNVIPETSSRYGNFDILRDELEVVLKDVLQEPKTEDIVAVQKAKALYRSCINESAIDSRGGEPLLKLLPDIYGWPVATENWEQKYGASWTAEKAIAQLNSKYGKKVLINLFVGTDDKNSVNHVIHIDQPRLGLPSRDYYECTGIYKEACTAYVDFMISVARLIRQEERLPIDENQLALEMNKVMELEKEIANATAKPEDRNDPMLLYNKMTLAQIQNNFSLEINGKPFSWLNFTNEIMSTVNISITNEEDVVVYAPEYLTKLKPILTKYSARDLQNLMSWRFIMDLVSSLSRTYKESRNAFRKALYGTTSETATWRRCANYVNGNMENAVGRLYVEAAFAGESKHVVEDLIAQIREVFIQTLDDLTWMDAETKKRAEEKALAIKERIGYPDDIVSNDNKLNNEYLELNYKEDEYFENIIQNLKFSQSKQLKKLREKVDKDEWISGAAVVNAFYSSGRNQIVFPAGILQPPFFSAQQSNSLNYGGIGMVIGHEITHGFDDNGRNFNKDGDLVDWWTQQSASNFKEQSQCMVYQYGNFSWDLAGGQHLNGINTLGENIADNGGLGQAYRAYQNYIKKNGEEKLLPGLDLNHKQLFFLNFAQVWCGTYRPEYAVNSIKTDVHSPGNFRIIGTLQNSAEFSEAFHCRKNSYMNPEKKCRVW
PROTOCOL_NOTES: cell-based or functional assay
MEASURE: % of control after 240 min (intact peptide by RP-HPLC after incubation with NEP)

> print(dat)
                                     binder  value.measured
1  EEEEEESGGGGSGGGKGANKKGLSKGCFGLKLDRIGSMSGLGC [C4(E6) [BC4]]             94%
2  EEEEEEHGPQGQEHPNARKYKGANKKGLSKGCFGLKLDRIGSMSGLGC [KA1(E6)]            108%
3  DDDDDDGGGGSGGGGSGGGGGLSKGCFGLKLDRIGSMSGLGC [D6-14AAlinker-CNP [C3]]            101%
4  GLSKGCFGLKLDRIGSMSGLGCGGGGSGGGGSGGGGDDDDDD [CNP-14AAlinker-D6 [C4]]             75%
5  EEEEEESGGGGSGGGKGANQQGLSKGCFGLKLDRIGSMSGLGC [C9(E6) [BC9]]             98%
6  EEEEEEHKLRGQEHPNARKYKGANKKGLSKGCFGLKLDRIGSMSGLGC [KB1(E6)]            107%
